Let's look at some compounds and their measured pEC50.
# TARGET UNDER TEST: UniProt P28223
# Sequence (P28223 whole entry): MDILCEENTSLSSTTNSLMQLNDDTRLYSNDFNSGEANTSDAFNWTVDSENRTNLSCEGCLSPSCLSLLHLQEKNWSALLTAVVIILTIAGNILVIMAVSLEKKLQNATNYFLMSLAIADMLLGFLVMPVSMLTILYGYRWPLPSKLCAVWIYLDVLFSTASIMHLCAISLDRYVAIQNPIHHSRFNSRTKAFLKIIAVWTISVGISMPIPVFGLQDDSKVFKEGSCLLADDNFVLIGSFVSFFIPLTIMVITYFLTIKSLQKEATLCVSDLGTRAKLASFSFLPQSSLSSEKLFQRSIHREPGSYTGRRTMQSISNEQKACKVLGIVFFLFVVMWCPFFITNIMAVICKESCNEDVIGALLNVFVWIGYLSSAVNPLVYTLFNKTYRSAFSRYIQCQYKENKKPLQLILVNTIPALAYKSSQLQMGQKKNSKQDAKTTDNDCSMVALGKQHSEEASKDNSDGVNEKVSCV
# TEST DETAILS: Agonist activity at 5-HT2AR (unknown origin) transfected in human HEK293 cells by IP3 accumulation assay
pEC50: −log10 of the molar value.
READOUT TYPE: pEC50

FC(F)(F)CCc1cccc2c1CC[C@@H]1CNCCN21 :: 6.00
c1ccc(Cc2ccnc3c2CC[C@@H]2CNCCN32)cc1 :: 7.30
Clc1ccnc2c1CC[C@@H]1CNCCN21 :: 5.90
c1cc(C2CC2)c2c(n1)N1CCNC[C@H]1CC2 :: 6.40
CCCc1cccc2c1CC[C@@H]1CNCCN21 :: 6.80
